Target: T1, soluble E2-his6-sortase tag from HCV isolate AMS.2b.20876551.kloon21 (genotype 2b) (Hepatitis C virus genotype 2b)
T1 chain: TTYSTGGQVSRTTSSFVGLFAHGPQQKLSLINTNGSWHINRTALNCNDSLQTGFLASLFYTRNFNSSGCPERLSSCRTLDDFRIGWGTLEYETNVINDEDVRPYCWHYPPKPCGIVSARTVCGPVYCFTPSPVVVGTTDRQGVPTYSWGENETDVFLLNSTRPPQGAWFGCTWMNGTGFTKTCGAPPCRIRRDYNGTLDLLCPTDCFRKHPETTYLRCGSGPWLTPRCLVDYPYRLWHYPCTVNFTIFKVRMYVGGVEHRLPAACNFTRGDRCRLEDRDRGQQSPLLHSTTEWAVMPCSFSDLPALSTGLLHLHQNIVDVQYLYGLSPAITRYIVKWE
Measurement notes: SPR (IBIS MX96), antibody spotted on chip, soluble E2-his as analyte
pKd: −log10 of the molar value.

- Binder: "AT12-009 (antibody, V domains shown) VH: SSVRVSCKASGDTFKTHAISWVRQAPGQGLEWVGGTVRQAPGDGLELLGGFVPILAPANDAQKFQGRVTITADGSTGPVYMDLSTLTSEDTAMYYCVTSLSEPIPRSCRGGRCYSGPFDAFGVWGQGTMVTVSS VL: ETMLTQSPVTLSVSPGERATLSCRASQSIGTNLAWYQQKPGQAPRLLIHGASTRATGVPVSFSGSGSGTEFTLTISSLQSEDFAVYYCQQYNNWPLTFGGGTKVDFKR"
  pKd: 8.64
- Binder: "AT12-010 (antibody, V domains shown) VH: QLQLVQSGAEVKKPGSSVKVSCKASGGTFTSYAINWVRQVPGQGLEWMGEISPVFGTTHYAQKFQGRLKITADESADTAYMELSSLRSDDTAVYYCGRDRAPRLCSGGRCHSPPDHWGQGTLVTVSS VL: DIQMTQSPSSVSASVGDRVTITCRASQGFGNWLAWYQQKPGRAPKLLIFGASTLQNGVPSRFSGSASGTDFTLTITSLQPEDFATYYCLQTNTFPYTFGQGTKVEIKR"
  pKd: 7.64
- Binder: "AT12-011 (antibody, V domains shown) VH: QVQLVQSGAEVKKPGSSVKVSCKASGGTFSGYGITWVRQAPGQGLEWMGTIIPVSATETYAQRLQGRVTISADEHSTTSYMEVSSLKSEDTALYYCARHDYFWGTPLDIWGQGTMVIVSS VL: EIVLTQSPDFQSVTPKEKVTITCRASQSIGSNLHWYQQKPGQSPKLLIKYASQSFSGVPSRFSGSGSGTDFTLTINSLEAEDAATYFCHQSYNLPRTFGGGTKVEIKR"
  pKd: 9.70
- Binder: "AT12-007 (antibody, V domains shown) VH: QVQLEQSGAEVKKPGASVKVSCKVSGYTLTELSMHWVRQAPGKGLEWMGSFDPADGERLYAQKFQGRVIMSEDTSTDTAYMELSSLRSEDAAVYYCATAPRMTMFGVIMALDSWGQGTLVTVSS VL: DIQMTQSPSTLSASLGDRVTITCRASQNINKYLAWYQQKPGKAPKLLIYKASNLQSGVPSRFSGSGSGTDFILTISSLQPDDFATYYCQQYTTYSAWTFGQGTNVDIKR"
  pKd: 8.42
- Binder: "AT13-021 (antibody, V domains shown) VH: QVQLVQSGAEVKKPGSSVKVSCKASGGTFNTHAFSWVRQAPGEGLEWMGGISPMSGTPNYAQKFQGRLTITADESTSTGYMELRSLTSEDTAVYYCARELIGYCTGGNCYSFGDFWGQGTLITVSS VL: EIVMTQSPATLSVSPGERATLSCRASQSVSSHLAWYQHKPGQAPRLLISGASTRAVGVPARFSGSGSGTEFTLTISSLQSEDFAVYYCHQYNTWPRGFGQGTKVDFKR"
  pKd: 8.70

Reference for the values: patent US20170313764A1
